# experimental.details: In vitro cytotoxicity, MTT assay
# Assay type: cell-based
# condition: human, HEC-1A cells
Property: CC50 at 24 h; scope: individual compounds

In plain terms, C#C[C@]1(CO)O[C@@H](n2cnc3c(N)nc(F)nc32)C[C@@H]1O has a documented CC50 at 24 h of > 50 µg/mL

Shift focus to the following entry.
In plain terms, NC(=O)c1[nH]c2ccc(Cl)cc2c1S(=O)(=O)c1ccccc1 has a documented CC50 at 24 h of 11.4 µg/mL

---

# experimental.details: CSIC solubility in water and solubilizer solutions
# Format: physicochemical
# condition: water
metric.name: solubility

In plain terms, NC(=O)c1[nH]c2ccc(Cl)cc2c1S(=O)(=O)c1ccccc1 [CSIC] has a documented solubility of < 0.5 µg/mL

The origin of these recorded values is paper PMC4529374.
